Assay: Pharmacokinetics of MRS4322 following intravenous administration to neonatal pigs
Type: in vivo
Conditions: female, pig, plasma, iv, 0.2 mg/kg, plasma, MRS4322 0.2 mg/kg IV, mean, read-out: AUClast Mean
observation_type: AUC(0-t) (ng·h/mL)
Only the number, expressed in ng·h/mL, is required.

Need AUC(0-t), item CSc1nc(N)c2ncn([C@H]3[C@H](O)[C@H](O)[C@]4(CO)C[C@H]34)c2n1
249

* * *

Test: Pharmacokinetics of MRS4322 following intravenous administration to neonatal pigs
Assay type: in vivo
Details: female, pig, 0.2 mg/kg, IV, 6 hours post-dose, based on mean concentrations in plasma and brain, read-out: brain/plasma ratio of total drug
observation_type: Kp at 6 h

Need Kp at 6 h, item CSc1nc(N)c2ncn([C@H]3[C@H](O)[C@H](O)[C@]4(CO)C[C@H]34)c2n1 [MRS4322]
~0.3
